Ref: ChEMBL document CHEMBL1124705

subject.of.test: Renin (Homo sapiens, UniProt P00797)
Sequence (P00797 whole entry): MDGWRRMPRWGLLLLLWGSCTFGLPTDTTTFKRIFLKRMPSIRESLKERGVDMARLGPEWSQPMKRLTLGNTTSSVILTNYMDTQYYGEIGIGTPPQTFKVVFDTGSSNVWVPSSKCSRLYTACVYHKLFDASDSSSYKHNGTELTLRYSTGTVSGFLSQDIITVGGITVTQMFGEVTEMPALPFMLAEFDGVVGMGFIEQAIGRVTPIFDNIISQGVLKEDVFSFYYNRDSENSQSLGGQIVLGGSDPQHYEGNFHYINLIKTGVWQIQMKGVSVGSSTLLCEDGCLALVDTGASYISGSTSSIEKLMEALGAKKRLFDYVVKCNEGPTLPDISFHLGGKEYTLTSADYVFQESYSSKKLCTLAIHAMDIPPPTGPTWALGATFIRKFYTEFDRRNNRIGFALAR
pIC50: −log10 of the molar value.
Decide by pIC50: equal to or exceeding 6 means fulfilled, less means not fulfilled.

Please indicate if the recorded pIC50 for CC(C)CC(=O)N[C@H](/C=C/CC(=O)N[C@@H](CC(C)C)C(O)CC(=O)N[C@@H](CC(C)C)C(=O)NCc1ccccc1)Cc1ccccc1 (stereo partly drawn) meets or exceeds 6. not fulfilled

Please indicate if the recorded pIC50 for CC(C)C[C@H](NC(=O)CC(O)[C@H](CC(C)C)NC(=O)[C@H](Cc1c[nH]cn1)NC[C@H](Cc1ccccc1)NC(=O)OC(C)(C)C)C(=O)NCc1ccccc1 (stereo partly drawn) meets or exceeds 6. not fulfilled

Please indicate if the recorded pIC50 for CC(C)C[C@H](NC(=O)CC(O)[C@H](CC(C)C)NC(=O)CCC(=O)[C@H](Cc1ccccc1)NC(=O)OC(C)(C)C)C(=O)NCc1ccccc1 (stereo partly drawn) meets or exceeds 6. not fulfilled

Please indicate if the recorded pIC50 for CC(C)C[C@H](NC(=O)C[C@@H](O)C(CC1CCCCC1)NC(=O)CCC(O)[C@H](Cc1ccccc1)NC(=O)OC(C)(C)C)C(=O)NCc1ccc(CN)cc1 (stereo partly drawn) meets or exceeds 6. fulfilled

Please indicate if the recorded pIC50 for CC(C)C[C@H](NC(=O)C[C@@H](O)C(CC1CCCCC1)NC(=O)/C=C/C(O)[C@H](Cc1ccccc1)NC(=O)OC(C)(C)C)C(=O)NCc1ccc(CNC(=O)OCc2ccccc2)cc1 (stereo partly drawn) meets or exceeds 6. fulfilled

Please indicate if the recorded pIC50 for CC(C)C[C@H](NC(=O)C[C@@H](O)C(Cc1ccccc1)NC(=O)CC1OC1[C@H](Cc1ccccc1)NC(=O)OC(C)(C)C)C(=O)NCc1ccccc1 (stereo partly drawn) meets or exceeds 6. not fulfilled

Please indicate if the recorded pIC50 for CC(C)CC(=O)N[C@H](CS[C@@H](Cc1ccccc1)C(=O)N[C@@H](CC(C)C)C(O)CC(=O)N[C@@H](C)C(=O)N[C@@H](CC(C)C)C(O)CC(=O)NCc1ccccc1)Cc1ccccc1 (stereo partly drawn) meets or exceeds 6. not fulfilled
